Listed below: Normalized SPR values for each entry.
Molecular target: T1, Activin A (Homo sapiens (Human), UniProt P08476 311-426)
T1 sequence: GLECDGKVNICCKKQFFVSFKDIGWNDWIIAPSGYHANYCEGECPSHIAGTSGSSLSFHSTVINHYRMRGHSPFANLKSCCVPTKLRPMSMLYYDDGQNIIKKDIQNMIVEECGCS
Test: Biacore SPR grade, CHO stable conditioned media, 20 nM activin A

# count of solved cases: 3
# binder, observable, measured
rows = [
    ("ActRIIB5-IgG1 Fc E28A, linker GGGGS (Fc fusion, Tested from conditioned media) SGRGEAETRACIYYNANWELERTNQSGLERCEGEQDKRLHCYASWRNSSGTIELVKKGCWLDDFNCYDRQECVATEENPQVYFCCCEGNFCNERFTHLPEAGGPEGPWASTTIPSGGPEATAAAGDQGSGALWLCLEGPAHEGGGGSAPELLGGPSVFLFPPKPKDILMISRTPEVTCVVVDVSHEDPEVKFNWYVGGVEVHNAKTKPREEQYNSTYRVVSVLTVLHQDWLNGKEYKCKVSNKALPAPIEKTISKAKGQPREPQVYTLPPSRDELTKNQVSLTCLVKGFYPSDIAVEWESNGQPENNYKTTPPVLDSDGSFFLYSKLTVDKSRWQQGNVFSCSVMHEALHNHYTQKSLSLSPGK", "Normalized SPR", "20 to 40 ru"),
    ("ActRIIB5-IgG1 Fc E28W R40A, linker GGGGS (Fc fusion, Tested from conditioned media) SGRGEAETRWCIYYNANWELEATNQSGLERCEGEQDKRLHCYASWRNSSGTIELVKKGCWLDDFNCYDRQECVATEENPQVYFCCCEGNFCNERFTHLPEAGGPEGPWASTTIPSGGPEATAAAGDQGSGALWLCLEGPAHEGGGGSAPELLGGPSVFLFPPKPKDILMISRTPEVTCVVVDVSHEDPEVKFNWYVGGVEVHNAKTKPREEQYNSTYRVVSVLTVLHQDWLNGKEYKCKVSNKALPAPIEKTISKAKGQPREPQVYTLPPSRDELTKNQVSLTCLVKGFYPSDIAVEWESNGQPENNYKTTPPVLDSDGSFFLYSKLTVDKSRWQQGNVFSCSVMHEALHNHYTQKSLSLSPGK", "Normalized SPR", "40 to 60 ru"),
    ("ActRIIB5-IgG1 Fc E28A, no linker (Fc fusion, Tested from conditioned media) SGRGEAETRACIYYNANWELERTNQSGLERCEGEQDKRLHCYASWRNSSGTIELVKKGCWLDDFNCYDRQECVATEENPQVYFCCCEGNFCNERFTHLPEAGGPEGPWASTTIPSGGPEATAAAGDQGSGALWLCLEGPAHEAPELLGGPSVFLFPPKPKDILMISRTPEVTCVVVDVSHEDPEVKFNWYVGGVEVHNAKTKPREEQYNSTYRVVSVLTVLHQDWLNGKEYKCKVSNKALPAPIEKTISKAKGQPREPQVYTLPPSRDELTKNQVSLTCLVKGFYPSDIAVEWESNGQPENNYKTTPPVLDSDGSFFLYSKLTVDKSRWQQGNVFSCSVMHEALHNHYTQKSLSLSPGK", "Normalized SPR", "20 to 40 ru"),
]

Inquiry: Supply Normalized SPR value. Item: ActRIIB-IgG1 Fc E28A, linker GGGGS (Fc fusion, Tested from conditioned media) SGRGEAETRACIYYNANWELERTNQSGLERCEGEQDKRLHCYASWRNSSGTIELVKKGCWLDDFNCYDRQECVATEENPQVYFCCCEGNFCNERFTHLPEAGGPEVTYEPPPTAPTGGGGSAPELLGGPSVFLFPPKPKDILMISRTPEVTCVVVDVSHEDPEVKFNWYVGGVEVHNAKTKPREEQYNSTYRVVSVLTVLHQDWLNGKEYKCKVSNKALPAPIEKTISKAKGQPREPQVYTLPPSRDELTKNQVSLTCLVKGFYPSDIAVEWESNGQPENNYKTTPPVLDSDGSFFLYSKLTVDKSRWQQGNVFSCSVMHEALHNHYTQKSLSLSPGK
Reply text: 20 to 40 ru

Inquiry: Supply Normalized SPR value. Item: ActRIIB5-IgG1 Fc wild type, no linker (Fc fusion, Tested from conditioned media) SGRGEAETRECIYYNANWELERTNQSGLERCEGEQDKRLHCYASWRNSSGTIELVKKGCWLDDFNCYDRQECVATEENPQVYFCCCEGNFCNERFTHLPEAGGPEGPWASTTIPSGGPEATAAAGDQGSGALWLCLEGPAHEAPELLGGPSVFLFPPKPKDILMISRTPEVTCVVVDVSHEDPEVKFNWYVGGVEVHNAKTKPREEQYNSTYRVVSVLTVLHQDWLNGKEYKCKVSNKALPAPIEKTISKAKGQPREPQVYTLPPSRDELTKNQVSLTCLVKGFYPSDIAVEWESNGQPENNYKTTPPVLDSDGSFFLYSKLTVDKSRWQQGNVFSCSVMHEALHNHYTQKSLSLSPGK
Reply text: 20 to 40 ru

Inquiry: Supply Normalized SPR value. Item: ActRIIB-IgG1 Fc E28A, linker 2(GGGGS) (Fc fusion, Tested from conditioned media) SGRGEAETRACIYYNANWELERTNQSGLERCEGEQDKRLHCYASWRNSSGTIELVKKGCWLDDFNCYDRQECVATEENPQVYFCCCEGNFCNERFTHLPEAGGPEVTYEPPPTAPTGGGGSGGGGSAPELLGGPSVFLFPPKPKDILMISRTPEVTCVVVDVSHEDPEVKFNWYVGGVEVHNAKTKPREEQYNSTYRVVSVLTVLHQDWLNGKEYKCKVSNKALPAPIEKTISKAKGQPREPQVYTLPPSRDELTKNQVSLTCLVKGFYPSDIAVEWESNGQPENNYKTTPPVLDSDGSFFLYSKLTVDKSRWQQGNVFSCSVMHEALHNHYTQKSLSLSPGK
Reply text: 20 to 40 ru

Values were extracted from patent US20130288983A1.
